# System: adenosine kinase deficient (TgAK^-3) strain of T. gondii
# test-details: Anti-toxoplasmic activity in tissue culture
# Format: cell-based, Toxoplasma gondii
# assay-context: TgAK^-3 in human fibroblasts, 50 μM compound
reported-metric: percent survival of parasite

OCC1CC(n2cnc3c(SCc4cccc(C(F)(F)F)c4)ncnc32)C(O)C1O (stereo not shown) [Compound 6]: 100%
N#Cc1ccc(CSc2ncnc3c2ncn3C2CC(CO)C(O)C2O)cc1 (stereo not shown) [Compound 13, Carbocyclic 6-(p-cyanobenzylthio)inosine]: 100%
Cc1ccccc1CSc1ncnc2c1ncn2C1CC(CO)C(O)C1O (stereo not shown) [Compound 4]: 100%
OCC1CC(n2cnc3c(SCc4ccc(Cl)cc4)ncnc32)C(O)C1O (stereo not shown) [Compound 9]: 100%
Cc1ccc(CSc2ncnc3c2ncn3C2CC(CO)C(O)C2O)cc1 (stereo not shown) [Compound 11]: 100%

### Prompt Quick one: percent survival of parasite of OCC1CC(n2cnc3c(SCc4ccccc4F)ncnc32)C(O)C1O (stereo not shown) [Compound 2] ?
### Response 100%

### Prompt Quick one: percent survival of parasite of OCC1CC(n2cnc3c(SCc4ccc(Cl)c(Cl)c4)ncnc32)C(O)C1O (stereo not shown) [Compound 19] ?
### Response 100%

### Prompt Quick one: percent survival of parasite of OCC1CC(n2cnc3c(SCc4c(F)cccc4Cl)ncnc32)C(O)C1O (stereo not shown) [Compound 20] ?
### Response 100%

### Prompt Quick one: percent survival of parasite of OCC1CC(n2cnc3c(SCc4ccc(F)cc4)ncnc32)C(O)C1O (stereo not shown) [Compound 8] ?
### Response 100%

### Prompt Quick one: percent survival of parasite of O=[N+]([O-])c1cccc(CSc2ncnc3c2ncn3C2CC(CO)C(O)C2O)c1 (stereo not shown) [Compound 7, Carbocyclic 6-(m-nitrobenzylthio)inosine] ?
### Response 100%

### Prompt Quick one: percent survival of parasite of Cc1ccc(CSc2ncnc3c2ncn3C2CC(CO)C(O)C2O)c(C)c1C (stereo not shown) [Compound 21] ?
### Response 100%

### Prompt Quick one: percent survival of parasite of OCC1CC(n2cnc3c(SCc4ccc(Cl)cc4Cl)ncnc32)C(O)C1O (stereo not shown) [Compound 18] ?
### Response 100%

### Prompt Quick one: percent survival of parasite of OCC1CC(n2cnc3c(SCc4ccc(OC(F)(F)F)cc4)ncnc32)C(O)C1O (stereo not shown) [Compound 16] ?
### Response 100%

### Prompt Quick one: percent survival of parasite of OCC1CC(n2cnc3c(SCc4ccc(Br)cc4)ncnc32)C(O)C1O (stereo not shown) [Compound 10, Carbocyclic 6-(p-bromobenzylthio)inosine] ?
### Response 100%

### Prompt Quick one: percent survival of parasite of O=[N+]([O-])c1ccc(CSc2ncnc3c2ncn3C2CC(CO)C(O)C2O)cc1 (stereo not shown) [Compound 12, Carbocyclic 6-(p-nitrobenzylthio)inosine] ?
### Response 100%

### Prompt Quick one: percent survival of parasite of COC(=O)c1ccc(CSc2ncnc3c2ncn3C2CC(CO)C(O)C2O)cc1 (stereo not shown) [Compound 14] ?
### Response 100%

---

percent survival of parasite by entry:
# System: wild type (RH) strain of T. gondii
# test-details: Anti-toxoplasmic activity in tissue culture
# Assay type: cell-based, Toxoplasma gondii
# assay-context: wild type (RH) in human fibroblasts, 25 μM compound
Give the value, in units of %, as a plain number.

N#Cc1ccc(CSc2ncnc3c2ncn3C2CC(CO)C(O)C2O)cc1 (centres unmarked) [Compound 13, Carbocyclic 6-(p-cyanobenzylthio)inosine]: 48.8
OCC1CC(n2cnc3c(SCc4c(F)cccc4Cl)ncnc32)C(O)C1O (centres unmarked) [Compound 20]: 3.7
O=[N+]([O-])c1cccc(CSc2ncnc3c2ncn3C2CC(CO)C(O)C2O)c1 (centres unmarked) [Compound 7, Carbocyclic 6-(m-nitrobenzylthio)inosine]: 4.2

### Prompt Quick one: percent survival of parasite of O=[N+]([O-])c1ccc(CSc2ncnc3c2ncn3C2CC(CO)C(O)C2O)cc1 (centres unmarked) [Compound 12, Carbocyclic 6-(p-nitrobenzylthio)inosine] ?
### Response 44.2

### Prompt Quick one: percent survival of parasite of OCC1CC(n2cnc3c(SCc4ccc(Cl)cc4)ncnc32)C(O)C1O (centres unmarked) [Compound 9] ?
### Response 0.0

### Prompt Quick one: percent survival of parasite of Nc1ccc(S(=O)(=O)Nc2ncccn2)cc1 [Compound 23, Sulfadiazine, reference compound] ?
### Response 53.4

### Prompt Quick one: percent survival of parasite of OCC1CC(n2cnc3c(SCc4ccccc4)ncnc32)C(O)C1O (centres unmarked) [Compound 1, Carbocyclic 6-(benzylthio)inosine] ?
### Response 4.9

### Prompt Quick one: percent survival of parasite of OCC1CC(n2cnc3c(SCc4ccccc4F)ncnc32)C(O)C1O (centres unmarked) [Compound 2] ?
### Response 39.2

### Prompt Quick one: percent survival of parasite of Cc1ccc(CSc2ncnc3c2ncn3C2CC(CO)C(O)C2O)cc1 (centres unmarked) [Compound 11] ?
### Response 0.0

### Prompt Quick one: percent survival of parasite of OCC1CC(n2cnc3c(SCc4ccccc4Cl)ncnc32)C(O)C1O (centres unmarked) [Compound 3] ?
### Response 9.8

### Prompt Quick one: percent survival of parasite of COC(=O)c1ccc(CSc2ncnc3c2ncn3C2CC(CO)C(O)C2O)cc1 (centres unmarked) [Compound 14] ?
### Response 1.5

### Prompt Quick one: percent survival of parasite of OCC1CC(n2cnc3c(SCc4ccc(Cl)c(Cl)c4)ncnc32)C(O)C1O (centres unmarked) [Compound 19] ?
### Response 8.3

### Prompt Quick one: percent survival of parasite of Cc1cccc(CSc2ncnc3c2ncn3C2CC(CO)C(O)C2O)c1 (centres unmarked) [Compound 5] ?
### Response 13.7
